System: MAT1S (FaMAT1S)
Construct: gene MAT1; no tag removal described
test.details: LC-MS malonyltransferase assay, non-linear Michaelis-Menten fit
Assay type: biochemical, Fragaria × ananassa
protocol.conditions: acceptor; co-substrate malonyl-CoA; potassium phosphate pH 7.0, 30°C, 30 min
endpoint: Km (µM)

INSERT INTO assay_data (molecule, tested_system, measured_result) VALUES
  ('OC[C@H]1O[C@@H](Oc2cc3c(O)cc(O)cc3[o+]c2-c2ccc(O)cc2)[C@H](O)[C@@H](O)[C@@H]1O [Pelargonidin‐3‐glucoside]', 'MAT1S (FaMAT1S)', 400),
  ('OC[C@H]1O[C@@H](Oc2cc3c(O)cc(O)cc3[o+]c2-c2ccc(O)c(O)c2)[C@H](O)[C@@H](O)[C@@H]1O [Cyanidin‐3‐glucoside]', 'MAT1S (FaMAT1S)', 11),
  ('O=c1c(O[C@@H]2O[C@H](CO)[C@@H](O)[C@H](O)[C@H]2O)c(-c2ccc(O)cc2)oc2cc(O)cc(O)c12 [Kaempferol‐3‐glucoside]', 'MAT1S (FaMAT1S)', 300),
  ('O=c1c(O[C@@H]2O[C@H](CO)[C@@H](O)[C@H](O)[C@H]2O)c(-c2ccc(O)c(O)c2)oc2cc(O)cc(O)c12 [Quercetin‐3‐glucoside]', 'MAT1S (FaMAT1S)', 300);

---

Tested on: MAT4C1/S1 (FaMAT4C1)
Construct: gene MAT4; no tag removal described
test.details: LC-MS malonyltransferase assay, non-linear Michaelis-Menten fit
Type: biochemical, Fragaria × ananassa
protocol.conditions: acceptor; co-substrate malonyl-CoA; potassium phosphate pH 7.0, 30°C, 30 min
# Km annotations
endpoint: Km (µM)

INSERT INTO measurements (compound, tested_system, output_unit, measured_result) VALUES
  ('O=c1c(O[C@@H]2O[C@H](CO)[C@@H](O)[C@H](O)[C@H]2O)c(-c2ccc(O)c(O)c2)oc2cc(O)cc(O)c12 [Quercetin‐3‐glucoside]', 'MAT4C1/S1 (FaMAT4C1)', 'µM', 220),
  ('O=c1c(O[C@@H]2O[C@H](CO)[C@@H](O)[C@H](O)[C@H]2O)c(-c2ccc(O)cc2)oc2cc(O)cc(O)c12 [Kaempferol‐3‐glucoside]', 'MAT4C1/S1 (FaMAT4C1)', 'µM', 250),
  ('OC[C@H]1O[C@@H](Oc2cc3c(O)cc(O)cc3[o+]c2-c2ccc(O)cc2)[C@H](O)[C@@H](O)[C@@H]1O [Pelargonidin‐3‐glucoside]', 'MAT4C1/S1 (FaMAT4C1)', 'µM', 390),
  ('OC[C@H]1O[C@@H](Oc2cc3c(O)cc(O)cc3[o+]c2-c2ccc(O)c(O)c2)[C@H](O)[C@@H](O)[C@@H]1O [Cyanidin‐3‐glucoside]', 'MAT4C1/S1 (FaMAT4C1)', 'µM', 63);
